property_label: pKd
FYI, pKd means -log10 of a concentration in mol per litre.

Query block: Lookup: pKd / human platelet-derived TXA2 receptor (Homo sapiens, UniProt P21731) / CCCCC[C@H](O)/C=C/[C@@H]1[C@@H](C/C=C\CCCC(=O)O)[C@H]2CO[C@@H]1C2 [Compound U-46619, 11-9-epoxymethane-PGH2, reference compound]
Result block: 7.51
